B1: TPR t1 (parent)
chain: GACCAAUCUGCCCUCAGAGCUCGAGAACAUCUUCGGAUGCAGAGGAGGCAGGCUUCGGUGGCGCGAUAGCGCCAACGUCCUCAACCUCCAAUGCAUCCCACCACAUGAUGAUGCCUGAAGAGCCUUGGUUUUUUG

- Variants of: B1
- method: polymerase ribozyme fitness, log enrichment relative to wild type (log ratio); higher = more active; in vitro selection for triplet polymerase activity
observation type: polymerase ribozyme fitness (log ratio)
Numbers only.

// known answers, use as guide
# variant string, observation type, experimental value
measured = [
    ("G69A G110A", "polymerase ribozyme fitness (log ratio)", -3.77),
    ("U59G A90U", "polymerase ribozyme fitness (log ratio)", -0.957),
    ("C11U A37C G52C C76U", "polymerase ribozyme fitness (log ratio)", -2.87),
]

Could I get polymerase ribozyme fitness (log ratio) for every one of these entries?
1. C89A U130G
2. A46G A90G C101U U106A

Reply:
1: -1.51; 2: -0.372
